Molecular target: T1, human amylin-3 (a) receptor (human, UniProt P30988 25-474; O60896 24-148)
T1 sequence (looked up) 1: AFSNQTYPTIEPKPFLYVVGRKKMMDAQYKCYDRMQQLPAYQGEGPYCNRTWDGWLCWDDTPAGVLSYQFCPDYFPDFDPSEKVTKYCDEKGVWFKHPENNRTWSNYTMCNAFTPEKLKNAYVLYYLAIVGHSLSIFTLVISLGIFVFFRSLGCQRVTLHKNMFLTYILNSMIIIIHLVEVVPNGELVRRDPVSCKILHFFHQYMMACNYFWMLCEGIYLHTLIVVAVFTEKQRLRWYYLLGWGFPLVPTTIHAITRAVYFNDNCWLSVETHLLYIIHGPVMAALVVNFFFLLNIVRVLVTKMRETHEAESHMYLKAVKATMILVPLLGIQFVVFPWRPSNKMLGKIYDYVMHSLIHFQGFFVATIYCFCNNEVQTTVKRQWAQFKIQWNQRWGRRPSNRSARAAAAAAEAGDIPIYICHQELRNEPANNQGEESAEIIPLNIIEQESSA
T1 sequence (looked up) 2: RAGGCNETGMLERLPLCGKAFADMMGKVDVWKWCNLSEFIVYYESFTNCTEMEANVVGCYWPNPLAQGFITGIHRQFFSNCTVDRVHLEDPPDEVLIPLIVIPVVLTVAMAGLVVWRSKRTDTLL
Experiment: cell-based or functional assay
Starred links: 1 amine or outer side, 2 acyl side, 3 side chain; linkers in the order of their positions; H or OH if unused. Non-standard residues stand in square brackets, D forms with d. Groups on a side chain read outwards from the residue. *: point of attachment. C20 diacid = O=C(O)CCCCCCCCCCCCCCCCCCC(=O)*; C16 diacid = O=C(O)CCCCCCCCCCCCCCC(=O)*; γGlu = O=C(O)[C@H](CCC(=O)[*:2])N[*:1]; εLys = N[C@@H](CCCCN[*:1])C(=O)[*:2]; AEEA = NCCOCCOCC(=O)O; Aib = CC(C)(N)C(=O)O
Parameter: Human AmyR3 potency [EC50 (pM)]. Scope: all listed entries.
A number alone suffices; assume pM.

BINDER | Human AmyR3 potency [EC50 (pM)]
Compound 0657 (peptide) peptide: H[Aib]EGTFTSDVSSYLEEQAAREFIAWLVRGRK([εLys-εLys-γGlu-C20 diacid])GGGGEASELSTAALGRLSAELHELATLPRTETGSGSP-NH2 | 10.4

Now let's try a different one.
Query: // Human AmyR3 potency [EC50 (pM)] lookup, key: Compound 0074 (peptide) peptide: H[Aib]EGTFTSDVSSYLEEQAARK([AEEA-AEEA-γGlu-C16 diacid])FIAWLVRGRGGK([AEEA-AEEA-γGlu-C16 diacid])EASELSTAALGRLSAELHELATLPRTETGSGSP-NH2
Reply: 60.9
